experiment: Example 1: pharmacokinetics of Compound I, single (SD) and multiple (MD, q8h 7 days) ascending doses, 3-hour IV infusion, healthy adult subjects; format: in vivo, human; settings: human, urine, intravenous, 1000 mg, 1000 mg multiple dose; read-out: Urinary Recovery
Property: dose excreted (%)
Write the answer as a number in %, unit excluded.

Ask | Provide one value: measured dose excreted of `O=C(O)C[C@@H]1CC[C@H](NC(=O)Cc2cccs2)B(O)O1`
Reply | 82.8

====

test: Example 6: noncompartmental plasma pharmacokinetics after third dose of the Combination (2 g meropenem/2 g Compound I q8h); settings: both, human, plasma, intravenous, Cmax, meropenem 2 g q8h, 6-hour BAL Sampling Group
Property: Cmax

Ask | Provide one value: measured Cmax of C[C@@H](O)[C@H]1C(=O)N2C(C(=O)O)=C(S[C@@H]3CN[C@H](C(=O)N(C)C)C3)[C@H](C)[C@H]12 [meropenem, Meropenem]
Reply | 59.4 µg/mL
